Target: human Edg-1 receptor (Homo sapiens, UniProt P21453)
Construct: FLAG (N); expressed in transfected cells; membrane preparation
Sequence (P21453 whole entry): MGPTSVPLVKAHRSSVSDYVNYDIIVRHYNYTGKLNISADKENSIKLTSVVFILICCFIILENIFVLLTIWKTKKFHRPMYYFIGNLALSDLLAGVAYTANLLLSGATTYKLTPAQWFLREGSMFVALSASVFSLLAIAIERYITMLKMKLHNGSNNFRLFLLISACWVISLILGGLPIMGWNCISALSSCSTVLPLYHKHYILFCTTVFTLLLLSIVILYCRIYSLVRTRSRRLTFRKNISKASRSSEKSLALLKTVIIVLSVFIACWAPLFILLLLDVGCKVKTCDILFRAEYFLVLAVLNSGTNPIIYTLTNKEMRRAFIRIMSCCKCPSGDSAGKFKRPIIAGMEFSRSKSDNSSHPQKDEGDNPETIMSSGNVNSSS
Assay: GTP-γ-S assay using human Edg-1 receptors (SPA, CHO Flp-In cell membrane preparation)
Assay type: biochemical
Conditions: test compound at 10 μM; high control 10 μM S1P regarded as 100% activation; background-corrected; triplicate; read-out: % Activation (Edg-1 receptor activation in percent of the activation by 10 μM S1P)
Would you please tag the item 1 (yes) when its activation at 10 µM is 70% or above, and 0 (no) when it is below?

Consider the following illustrative entries.
chemical smiles | qualitative label
CCCOc1nc(Sc2nccs2)nc2oc(-c3cc(F)ccc3Cl)nc12 | 1 (yes)
Cc1ccc(F)cc1Oc1nc(OCC2CC2)c2nc(-c3ccc(Cl)c(Cl)c3)oc2n1 | 0 (no)
CCCOc1nc(Oc2cc(F)ccc2C)nc2oc(-c3cccc(C)c3)nc12 | 1 (yes)

Lookup: Could you please find out whether "CCCOc1nc(Oc2ccc(Cl)c(C)c2)nc2oc(-c3cccc(C)c3)nc12" has activation at 10 µM that meets 70% or exceeds it?
Found: 0 (no)

Lookup: Decide: is the reported value of activation at 10 µM for "CCCOc1nc(Oc2ccc(C)c(F)c2)nc2oc(-c3cccc(C)c3)nc12" equal to or greater than 70%?
Found: 1 (yes)

Lookup: Exam item: decide whether the reported activation at 10 µM for "CCCOc1nc(Oc2ccccc2C(C)(C)C)nc2oc(-c3cccc(C)c3)nc12" is at least 70%.
Found: 0 (no)

Lookup: State whether the measured activation at 10 µM reaches 70%, counting equality as reaching it, for "CCCOc1ccccc1Oc1nc(OCCC)c2nc(-c3cccc(C)c3)oc2n1"
Found: 1 (yes)

Lookup: Form field: activation at 10 µM at least 70%? Entry: "CCCOc1nc(Oc2ccc(SC(F)(F)F)cc2)nc2oc(-c3cccc(F)c3)nc12"
Found: 1 (yes)

Lookup: Given the entry "CCCOc1nc(Oc2ccc(Cl)cc2C)nc2oc(-c3cccc(C)c3)nc12" , answer whether its activation at 10 µM meets or surpasses 70%.
Found: 1 (yes)

Lookup: Please check the record "CCCOc1nc(Oc2ccc(C)cc2Cl)nc2oc(-c3cccc(C)c3)nc12" and state if its activation at 10 µM is at or above 70%.
Found: 0 (no)

* * *

Target: human Edg-1 receptor (Homo sapiens, UniProt P21453)
Construct: FLAG (N); expressed in transfected cells; membrane preparation
Experiment: GTP-γ-S assay using human Edg-1 receptors (SPA, CHO Flp-In cell membrane preparation)
Type: biochemical
Settings: test compound at 10 μM; high control 10 μM S1P regarded as 100% activation; background-corrected; triplicate; read-out: % Activation (Edg-1 receptor activation in percent of the activation by 10 μM S1P)
observation type: activation at 10 µM
Answers without a unit are incomplete; give the number and then its unit.

Completed entries (count: 3):
molecule | activation at 10 µM
CCCOc1nc(Sc2nc(C)cs2)nc2oc(-c3cc(F)ccc3Cl)nc12 [Example 58] | 102%
CCCOc1nc(Oc2ccc(C)c(F)c2)nc2oc(-c3cccc(F)c3)nc12 [Example 81] | 89%
CCCOc1nc(Oc2cc(F)ccc2C)nc2oc(-c3ccc(Cl)c(Cl)c3)nc12 [Example 157] | 92%

State the recorded activation at 10 µM for every item in the following list.
1. CCCOc1nc(Oc2ccccc2F)nc2oc(-c3cc(C)c(O)c(C)c3)nc12 [Example 6]
2. CCCOc1nc(Oc2ccc(C#N)c(F)c2)nc2oc(-c3cccc(C)c3)nc12 [Example 134]
3. CCCOc1nc(OC2CCC(C)CC2)nc2oc(-c3cc(F)ccc3Cl)nc12 (centres unmarked) [Example 85]
4. CCCOc1nc(Oc2cc(C)ccc2C)nc2oc(-c3cccc(C)c3)nc12 [Example 133]

Found:
1: 105%; 2: 104%; 3: 67%; 4: 92%

Below are some molecules; for each one, tell me its activation at 10 µM.
1. CCCOc1nc(Oc2ccc(Cl)c(Cl)c2)nc2oc(-c3cccc(C)c3)nc12 [Example 1]
2. O=S1(=O)CCC(Sc2nc(OCC3CC3)c3nc(-c4cc(F)ccc4Cl)oc3n2)C1 (centres unmarked) [Example 13]
3. CCCOc1nc(O[C@H]2CCCC[C@@H]2F)nc2oc(-c3cccc(F)c3)nc12 [Example 48]
4. CCOc1nc(Oc2cccc(S(N)(=O)=O)c2)nc2oc(-c3cc(F)ccc3Cl)nc12 [Example 21]

Found:
1: 62%; 2: 104%; 3: 105%; 4: 81%

* * *

Target: human Edg-1 receptor (Homo sapiens)
Construct: FLAG (N); expressed in transfected cells; membrane preparation
Assay: GTP-γ-S assay using human Edg-1 receptors (SPA, CHO Flp-In cell membrane preparation)
Assay type: biochemical
Conditions: test compound at 10 μM; high control 10 μM S1P regarded as 100% activation; background-corrected; triplicate; read-out: % Activation (Edg-1 receptor activation in percent of the activation by 10 μM S1P)
Text: Determination of the Pharmacological Activity A) GTP-γ-S Assay Using Human Edg-1 Receptors In order to determine the Edg-1 receptor activation by the compounds of the invention, a GTP-γ-S (guanosine 5′-[γ-thio]triphosphate) assay for G-protein coupled receptor binding based on the scintillation proximity assay principle was used, employing a cell membrane preparation from a CHO Flp-In cell line which constitutively overexpresses the human Edg-1 receptor. […]
observation type: activation at 10 µM
Include the unit right after the number.

Example results:
molecule | activation at 10 µM
CCCOc1nc(Oc2cc(F)cc(Cl)c2)nc2oc(-c3cccc(C)c3)nc12 [Example 138] | 97%
CCCOc1nc(Oc2cc(Cl)ccc2Cl)nc2oc(-c3cccc(C)c3)nc12 [Example 120] | 86%
CCCOc1nc(Oc2ccc(F)cc2F)nc2oc(-c3cccc(C)c3)nc12 [Example 95] | 107%
Fc1ccccc1Oc1nc(OCC2CC2)c2nc(-c3ccc(Cl)c(Cl)c3)oc2n1 [Example 158] | 69%
CCOc1nc(Sc2ccc(F)c(F)c2)nc2oc(-c3cccc(C)c3)nc12 [Example 12] | 84%

Provide activation at 10 µM values for the following items, in order.
1. CCCOc1nc(Oc2cc(C)nn2C)nc2oc(-c3cccc(C)c3)nc12 [Example 25]
2. Fc1cccc(-c2nc3c(OCC4CC4)nc(Oc4ccccc4F)nc3o2)c1 [Example 32]

Found:
1. 110%
2. 61%

For each of the items listed, what is its activation at 10 µM?
1. CCCOc1nc(Oc2cccc(OC)c2)nc2oc(-c3cccc(C)c3)nc12 [Example 118]
2. CCCOc1nc(Oc2cccnc2)nc2oc(-c3cccc(O)c3)nc12 [Example 43]
3. Cc1cc(-c2nc3c(OC4COC4)nc(Oc4ccccc4F)nc3o2)cc(C)c1OC1COC1 [Example 49]
4. Cc1cccc(-c2nc3c(OCC4CC4)nc(OCC4COC(C)(C)O4)nc3o2)c1 (stereo not shown) [Example 36]
5. CCCOc1nc(Oc2ccc(SC(F)(F)F)cc2)nc2oc(-c3cccc(C)c3)nc12 [Example 112]

Found:
1. 98%
2. 98%
3. 123%
4. 78%
5. 46%

The following molecules each have a reported value; give each one's activation at 10 µM.
1. CCCOc1nc(Sc2nccs2)nc2oc(-c3cccc(C)c3)nc12 [Example 4]
2. Clc1ccc(-c2nc3c(OCC4CC4)nc(Oc4ccccc4)nc3o2)cc1Cl [Example 110]
3. CCCOc1nc(OC2CCC(C)CC2)nc2oc(-c3cccc(C)c3)nc12 (stereo not shown) [Example 70]
4. CCCOc1nc(SC2CCS(=O)(=O)C2)nc2oc(-c3cccc(F)c3)nc12 (stereo not shown) [Example 14]
5. CCCOc1nc(Oc2c(F)cccc2F)nc2oc(-c3cccc(C)c3)nc12 [Example 97]
6. CCCOc1nc(Oc2ccc(Cl)cc2Cl)nc2oc(-c3cccc(C)c3)nc12 [Example 119]
7. CCCOc1nc(Oc2cc(F)ccc2Cl)nc2oc(-c3cccc(C)c3)nc12 [Example 101]
8. CCOc1nc(Oc2cccc(S(N)(=O)=O)c2)nc2oc(-c3cccc(C)c3)nc12 [Example 22]

Found:
1. 93%
2. 80%
3. 77%
4. 72%
5. 124%
6. 116%
7. 104%
8. 100%

* * *

Biological target: human Edg-1 receptor (Homo sapiens, UniProt P21453)
Construct: FLAG (N); expressed in transfected cells; membrane preparation
Assay: GTP-γ-S assay using human Edg-1 receptors (SPA, CHO Flp-In cell membrane preparation)
Assay type: biochemical
Details: test compound at 10 μM; high control 10 μM S1P regarded as 100% activation; background-corrected; triplicate; read-out: % Activation (Edg-1 receptor activation in percent of the activation by 10 μM S1P)
observation type: activation at 10 µM (%)
Give bare numbers, in %.

Each of the following entries comes with a recorded value; kindly state activation at 10 µM for each.
1. CCCOc1nc(OCC2COC(C)(C)O2)nc2oc(-c3ccc(Cl)c(Cl)c3)nc12 (stereo not shown) [Example 45]
2. CCCOc1nc(Oc2ccc(C)cc2C)nc2oc(-c3cccc(C)c3)nc12 [Example 53]
3. CCCOc1nc(Oc2cccc(S(N)(=O)=O)c2)nc2oc(-c3cccc(C)c3)nc12 [Example 20]
4. CCOc1nc(Oc2cccc(S(=O)(=O)N(C)C)c2)nc2oc(-c3cccc(C)c3)nc12 [Example 17]
5. CCCOc1nc(Oc2ccccc2)nc2oc(-c3ccc(Cl)c(Cl)c3)nc12 [Example 105]
6. CCCOc1nc(Oc2cccc(SC(F)(F)F)c2)nc2oc(-c3cccc(F)c3)nc12 [Example 69]

Found:
[74, 73, 83, 55, 88, 41]
